Test system: NCI-H292 lung cancer cells
Experiment: FDA drug screening, complete media vs cholesterol-free media without statin (TABLE 1)
Format: cell-based, human
Conditions: Complete minus Cholesterol-free; greater than 0 enhanced anti-cancer activity, about 0 neutral, below 0 antagonist
Structures can show the parent of a compound that is named as a salt.
assay_readout: Difference
Enter a number only.

Request: Difference, test system NCI-H292 lung cancer cells, entry CCOC(=O)c1ccc(C#Cc2ccc3c(c2)C(C)(C)CCS3)nc1 [Tazarotene]
−0.11

Continue with OC[C@@H](O)[C@@H](O[C@@H]1O[C@H](CO)[C@H](O)[C@H](O)[C@H]1O)[C@H](O)[C@@H](O)CO [Lactitol (monohydrate)]
−0.17

Repeat with CCN(C(=O)c1c(O)c2c(Cl)cccc2n(C)c1=O)c1ccccc1 [Laquinimod]
−0.15

Another molecule: CC(=O)N[C@@H](CC(C)C)C(=O)O [Acetylleucine]
−0.09

Also, CO/N=C(\C(=O)N[C@@H]1C(=O)N2C(C(=O)OC(C)OC(C)=O)=C(COC(N)=O)CS[C@H]12)c1ccco1 (some centres unmarked) [Cefuroxime axetil] please.
−0.18

Same question for COc1ccc2[nH]c([S+]([O-])Cc3ncc(C)c(OC)c3C)nc2c1 (centres unmarked) [Omeprazole] please.
−0.12

Cool, now Cc1nc2n(c(=O)c1CCN1CCC(c3noc4cc(F)ccc34)CC1)CCCC2O (centres unmarked) [Paliperidone]
−0.18

Cool, now COC(=O)C1=C(C)NC(C)=C(C(=O)OCCN2CCN(C(c3ccccc3)c3ccccc3)CC2)C1c1cccc([N+](=O)[O-])c1 (centres unmarked) [Manidipine (dihydrochloride)]
−0.08

Values compiled from patent US20250144067A1.
